- System: test plant species
- method_description: Post-emergent herbicidal activity test (greenhouse, foliar spray, visual growth reduction)
- Type: in vivo
- run_conditions: post-emergence, 336 h, TRZAS: wheat, spring (Triticum aestivum), 140 g ai/ha, 14 days after application, read-out: Visual Growth Reduction (%) 14 Days After Application, TRZAS
quantity_measured: pest or weed control at 140 g/ha

smiles_data: O=C(O)c1nc(-c2ncc(Cl)cc2Cl)ccc1Cl
reported_value: 45 to 59%

smiles_data: COC(=O)c1nc(-c2ccc3c(c2F)OC(F)(F)O3)c(F)cc1Cl
reported_value: 85 to 94%

smiles_data: COC(=O)c1nc(-c2ccc(Cl)c(F)c2C)ccc1Cl
reported_value: 0 to 29%

smiles_data: COC(=O)c1nc(-c2cc(Cl)c(C(F)(F)F)cc2C)ccc1Cl
reported_value: 0 to 29%

smiles_data: COC(=O)c1nc(-c2cc(SC)c(C(F)(F)F)cc2Cl)c(F)cc1Cl
reported_value: 0 to 29%

smiles_data: COC(=O)c1nc(-c2ccc3occc3c2)c(F)cc1Cl
reported_value: 0 to 29%

smiles_data: COC(=O)c1nc(-c2ccc(C#N)cc2OC)c(F)cc1Cl
reported_value: 0 to 29%

smiles_data: O=C(O)c1nc(-c2nc(Cl)c(C(F)(F)F)cc2Cl)ccc1Cl
reported_value: 75 to 84%

smiles_data: COC(=O)c1nc(-c2ccc(F)cc2)c(F)cc1Cl
reported_value: 0 to 29%

smiles_data: CCCCOC(=O)c1nc(-c2ccc(Cl)c(OC)c2F)ccc1Cl
reported_value: 0 to 29%

smiles_data: O=C(O)c1nc(-c2cc(F)c(C(F)(F)F)cc2Cl)c(F)cc1Cl
reported_value: 95 to 100%

smiles_data: COC(=O)c1nc(-c2cc(F)c(C(F)(F)F)cc2OC)ccc1Cl
reported_value: 0 to 29%

smiles_data: COC(=O)c1nc(-c2ccc(C(F)(F)F)c(C)c2Cl)ccc1Cl
reported_value: 0 to 29%

smiles_data: O=C(O)c1nc(-c2ccc(C(F)(F)F)cc2Cl)c(F)cc1Cl
reported_value: 95 to 100%

smiles_data: COC(=O)c1nc(-c2ccc(OC(F)F)cc2OC)c(F)cc1Cl
reported_value: 60 to 74%

smiles_data: COC(=O)c1nc(-c2ccc3ccsc3c2F)c(F)cc1Cl
reported_value: 0 to 29%

smiles_data: COC(=O)c1nc(-c2ccc(OC(F)F)cc2)c(F)cc1Cl
reported_value: 0 to 29%

smiles_data: COC(=O)c1nc(-c2cc([N+](=O)[O-])c(C(F)(F)F)cc2Cl)c(F)cc1Cl
reported_value: 0 to 29%

smiles_data: COC(=O)c1nc(-c2cc3c(cc2F)OC(F)(F)O3)c(OC)cc1Cl
reported_value: 0 to 29%

smiles_data: O=C(O)c1nc(-c2ccc3[nH]ccc3c2)c(F)cc1Cl
reported_value: 0 to 29%

smiles_data: O=C(O)c1nc(-c2ncc(C(F)(F)F)cc2Cl)ccc1Cl
reported_value: 85 to 94%

smiles_data: COC(=O)c1nc(-c2ccc(C(F)F)cc2)ncc1Cl
reported_value: 0 to 29%

smiles_data: O=C(OCc1ccccn1)c1nc(-c2ccc(C(F)(F)F)cc2Cl)ccc1Cl
reported_value: 85 to 94%

smiles_data: COC(=O)c1nc(-c2ccc3cc[nH]c3c2)c(F)cc1Cl
reported_value: 0 to 29%

smiles_data: COC(=O)c1nc(-c2cc(F)c(C)cc2Cl)ccc1Cl
reported_value: 0 to 29%

smiles_data: O=C(O)c1nc(-c2cc(Br)c(C(F)(F)F)cc2Cl)ccc1Cl
reported_value: 85 to 94%

smiles_data: O=C(O)c1nc(-c2cc3c(cc2Cl)OCO3)c(F)cc1Cl
reported_value: 0 to 29%

smiles_data: COC(=O)c1nc(-c2cc3c(cc2Cl)OC(F)(F)O3)ncc1Cl
reported_value: 45 to 59%

smiles_data: COC(=O)c1nc(-c2cccc(C(F)(F)F)c2F)ccc1Cl
reported_value: 0 to 29%

smiles_data: O=C(O)c1nc(-c2ccc(C(F)(F)F)c(Cl)c2)ccc1Cl
reported_value: 0 to 29%

smiles_data: O=C(O)c1nc(-c2ccc(SC(F)(F)F)cc2Cl)c(Cl)cc1Cl
reported_value: 0 to 29%

smiles_data: COC(=O)c1nc(-c2ccc(SC)cc2)c(F)cc1Cl
reported_value: 0 to 29%
